System: U2OS
assay.method.text: Multiplex assay against U2OS
Type: toxicity, cell-based
conditions: human, 24 h, 1 µM, compound concentration 1 uM, replicate 1
measured.quantity: Population Tubulin-Different-Phenotype (%)

> print(dat)
                                   molecule  target.or.system    reported.measurement
1  COc1cc(-n2cnc3cc(-c4ccc(Cl)cc4)sc3c2=O)ccc1OCCN1CCCC1              U2OS                     42%
2  CN1CCN(c2ccc(OC(F)(F)F)c(Nc3ncc4c(n3)-c3c(c(C(N)=O)nn3CCO)CC4)c2)CC1 [ONVANSERTIB]              U2OS                     18%
3  Cc1[nH]c(/C=C2\C(=O)Nc3ccc(S(=O)(=O)N(C)c4cccc(Cl)c4)cc32)c(C)c1C(=O)N1CCN(C)CC1              U2OS                     61%
4  C=CC(=O)Nc1cc2c(Nc3ccc(F)c(Cl)c3)ncnc2cc1OCCCN1CCOCC1.Cl.Cl [CANERTINIB DIHYDROCHLORIDE]              U2OS                    100%
5  CNc1nc(NCc2ccc(NS(C)(=O)=O)cc2Cl)cc(-c2ccccn2)n1              U2OS                     19%
6  CC[C@H](C)C(=O)O[C@H]1C[C@@H](C)C=C2C=C[C@H](C)[C@H](CC[C@@H]3C[C@@H](O)CC(=O)O3)[C@H]21 [LOVASTATIN]              U2OS                     14%
7  O=C(NCCCC1CCCCC1)c1ccc(CNC(=O)c2cnn(-c3ccccc3)c2C(F)(F)F)cc1 [SR-321]              U2OS  19% [middle of 4 runs]

Attention now shifts to the item below.
Which Population Tubulin-Different-Phenotype (%) value is on record for CN1CCCC(n2nc(Cc3ccc(Cl)cc3)c3ccccc3c2=O)CC1.Cl (stereo not drawn) [AZELASTINE HYDROCHLORIDE] ?
68%

---

Test system: Fibroblast
assay.method.text: Multiplex assay against human fibroblast
Format: toxicity, cell-based
conditions: 24 h, 10 µM, compound concentration 10 uM, replicate 2
I'd appreciate it if you could supply Population Fragmented Nuclei (%) values for the items below.

Consider the following illustrative entries.
> print(dat)
                                   molecule  target.or.system  reported.measurement
1  CC(C)(O)CNc1ncc(-c2ccnc(Nc3ccnc(Cl)c3)n2)c(CC2CC2)n1        Fibroblast                   14%
2  Cc1csc2c(N[C@@H](C)CN3CCN(S(=O)(=O)c4ccc(Cl)c(Cl)c4)CC3)ncnc12        Fibroblast                   15%
3  COc1ncc(-c2ccc3nccc(-c4ccnnc4)c3c2)cc1NS(=O)(=O)c1ccc(F)cc1F        Fibroblast                   27%
4  CN(C)C(=O)/C(C#N)=C/c1ccc(-c2nc3cnc4[nH]ccc4c3n2C2CCCCC2)o1        Fibroblast                   28%
5  Cc1cc(C)cc(-c2cnc3cc(Cl)c(-c4cccc(O)c4)cc3c2OCCCN)c1        Fibroblast                   24%

For every listed record, write down its Population Fragmented Nuclei (%).
1. CN(C)CC#Cc1ccc(OCCCc2sc(N3CCc4cccc(C(=O)Nc5nc6ccccc6s5)c4C3)nc2C(=O)O)c(F)c1
2. COc1cc(-n2cnc3cc(-c4ccc(Cl)cc4)sc3c2=O)ccc1OCCN1CCCC1

32%
24%

For every listed record, write down its Population Fragmented Nuclei (%).
1. C=CC(=O)Nc1cc2c(Nc3ccc(F)c(Cl)c3)ncnc2cc1OCCCN1CCOCC1.Cl.Cl [CANERTINIB DIHYDROCHLORIDE]
2. OC1(c2ccc(Cl)cc2)CCN(Cc2c[nH]c3ccccc23)CC1
3. CN1CCC[C@@H]1CCO[C@](C)(c1ccccc1)c1ccc(Cl)cc1.O=C(O)/C=C/C(=O)O [CLEMASTINE FUMARATE]
4. CN1CCN(c2ccc(OC(F)(F)F)c(Nc3ncc4c(n3)-c3c(c(C(N)=O)nn3CCO)CC4)c2)CC1
5. c1cn2cc(-c3ccc4cn[nH]c4c3)nc(Nc3ccc(N4CCOCC4)cc3)c2n1
6. CC(C)NCC(O)COc1ccc(CCOCC2CC2)cc1.Cl (configuration not stated) [BETAXOLOL HYDROCHLORIDE]
7. COc1cc2nccc(Oc3ccc(NC(=O)Nc4cc(C)on4)c(Cl)c3)c2cc1OC.O

["73%", "21%", "21%", "11%", "33%", "7%", "16%"]

---

Tested on: Fibroblast
assay.method.text: Multiplex assay against human fibroblast
Assay type: toxicity, cell-based
conditions: 24 h, 1 µM, compound concentration 1 uM, replicate 2
measured.quantity: Population Hoechst High Intensity Objects (%)
Answers are plain numbers, in %.

Consider the following illustrative entries.
> print(dat)
                                   compound  reported.measurement
1  COc1cc(-n2cnc3cc(-c4ccc(Cl)cc4)sc3c2=O)ccc1OCCN1CCCC1                    10
2  Cl.N#Cc1ccc2[nH]cc(CCCCN3CCN(c4ccc5oc(C(N)=O)cc5c4)CC3)c2c1 [VILAZODONE HYDROCHLORIDE]                     1

For every listed record, write down its Population Hoechst High Intensity Objects (%).
1. OC1(c2ccc(Cl)cc2)CCN(Cc2c[nH]c3ccccc23)CC1
2. CC[C@H](C)C(=O)O[C@H]1C[C@@H](C)C=C2C=C[C@H](C)[C@H](CC[C@@H]3C[C@@H](O)CC(=O)O3)[C@H]21 [LOVASTATIN]
3. C=CC(=O)Nc1cccc(C(=O)Nc2ccc(Nc3cc(-c4[nH]c(SC)nc4C)ccn3)cc2)c1
4. CN1CCN(c2ccc(OC(F)(F)F)c(Nc3ncc4c(n3)-c3c(c(C(N)=O)nn3CCO)CC4)c2)CC1 [ONVANSERTIB]

1. 8
2. 9
3. 4
4. 5

For every listed record, write down its Population Hoechst High Intensity Objects (%).
1. COc1ncc(-c2ccc3nccc(-c4ccnnc4)c3c2)cc1NS(=O)(=O)c1ccc(F)cc1F [OMIPALISIB]
2. Cc1c(-c2ccc(O)cc2)n(Cc2ccc(OCCN3CCCCCC3)cc2)c2ccc(O)cc12 [BAZEDOXIFENE]
3. CN(C)C(=O)N[C@H]1CC[C@H](CCN2CCN(c3cccc(Cl)c3Cl)CC2)CC1.Cl [CARIPRAZINE HYDROCHLORIDE]
4. CC(C)(O)CNc1ncc(-c2ccnc(Nc3ccnc(Cl)c3)n2)c(CC2CC2)n1
5. CN(C)C(=O)/C(C#N)=C/c1ccc(-c2nc3cnc4[nH]ccc4c3n2C2CCCCC2)o1

11
3
4
4
4

For every listed record, write down its Population Hoechst High Intensity Objects (%).
1. C[C@@]1(C(=O)Nc2ccc(F)nc2)CCCN1c1nc(Nc2cc(C3CC3)n[nH]2)c2cccn2n1 [BMS-754807]
2. Cn1cc(-c2[nH]c3cc(NC(=O)[C@H](N)C4CCCCC4)cc4c3c2C=NNC4=O)cn1
3. NC(=O)Nc1cc(-c2cccc(F)c2)sc1C(=O)N[C@H]1CCCNC1 [AZD-7762]
4. CN1CCC[C@@H]1CCO[C@](C)(c1ccccc1)c1ccc(Cl)cc1.O=C(O)/C=C/C(=O)O [CLEMASTINE FUMARATE]
5. C=CC(=O)Nc1cc2c(Nc3ccc(F)c(Cl)c3)ncnc2cc1OCCCN1CCOCC1.Cl.Cl [CANERTINIB DIHYDROCHLORIDE]

1: 40; 2: 3; 3: 26; 4: 0; 5: 39

---

System: HEK-293T
assay.method.text: Multiplex assay against HEK293T
Assay type: toxicity, cell-based
conditions: human, 24 h, 10 µM, compound concentration 10 uM, replicate 2
measured.quantity: Population Membrane Permeable-Phenotype (%)
One number for each entry, in %.

> print(dat)
                                   compound  unit.annotation  reported.measurement
1  Cc1nc(-c2ccc(-c3ccc(C(=O)N4CCc5cc6c(cc54)C4(CCN(C)CC4)CO6)cc3)c(C)c2)no1                %                     0

For every listed record, write down its Population Membrane Permeable-Phenotype (%).
1. CN(C)CC#Cc1ccc(OCCCc2sc(N3CCc4cccc(C(=O)Nc5nc6ccccc6s5)c4C3)nc2C(=O)O)c(F)c1
2. CN(C)C(=O)/C(C#N)=C/c1ccc(-c2nc3cnc4[nH]ccc4c3n2C2CCCCC2)o1

20
7

The measured values listed here are drawn from ChEMBL document CHEMBL4689842.
